interaction score values, listed per item
- EXPERIMENTAL_TARGET: T1, O13
- T1 chain: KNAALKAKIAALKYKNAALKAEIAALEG
- TEST_DETAILS: two-hybrid library CC0;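 also: natural log of median RNA to DNA barcode read ratio; higher means stronger binding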
- APPLIED_CONDITIONS: mean of both orientations
When you answer, write just the number.

INSERT INTO assay_data (binder, observed_result) VALUES
  ('KIAALKAEIAALEYENAALEAENAALEG [O11]', -2.75),
  ('KNAALKAENAALEYEIAALEAEIAALEG [O1]', -2.57),
  ('EIAALEAKIAALKYKNAALKAKNAALKG [O12]', -2.79),
  ('KNAALKAKIAALKYKNAALKAEIAALEG [O13]', -2.86);

We next turn to a different binder, shown below.
Prompt: Returns the measured interaction score for the input binder. Input: KNAALKAENAALEYKIAALKAKIAALKG [O10]
Response: -2.76

Source listed as paper PMC10397247.
